Where these numbers come from: a collection of fitness landscapes (doi:10.1126/science.1257360)

B1: PhoQ; a variant is named by its letters at X, in order, P23837 (parent)
chain: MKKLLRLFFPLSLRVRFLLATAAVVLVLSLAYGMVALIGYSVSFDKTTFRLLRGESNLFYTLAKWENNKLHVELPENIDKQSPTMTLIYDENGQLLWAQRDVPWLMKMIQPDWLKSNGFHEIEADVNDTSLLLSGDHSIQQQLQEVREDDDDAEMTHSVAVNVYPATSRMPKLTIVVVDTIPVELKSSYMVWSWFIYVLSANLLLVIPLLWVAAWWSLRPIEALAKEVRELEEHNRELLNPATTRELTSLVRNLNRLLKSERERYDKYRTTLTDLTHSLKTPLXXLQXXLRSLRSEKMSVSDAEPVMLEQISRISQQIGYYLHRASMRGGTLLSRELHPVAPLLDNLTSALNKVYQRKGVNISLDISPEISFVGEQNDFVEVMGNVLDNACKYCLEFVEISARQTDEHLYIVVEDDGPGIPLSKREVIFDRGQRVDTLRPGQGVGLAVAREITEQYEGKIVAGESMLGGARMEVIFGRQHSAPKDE

- Variants of: B1
- TEST DESCRIPTION: enrichment ratio after two sorts for PhoP signalling (ratio (wild type AVST 3.29)); higher = more functional
- CONDITION DETAILS: with PhoP (E. coli)
In all, about 140,000 sequences were measured (“enrichment ratio after two sorts for PhoP signalling”: median about 0, highest 2% from about 11 on). Shown is part of a subset that was picked to be rich in the highest values.
Catalogue of enrichment ratio values

Here is how some variants turned out for enrichment ratio.
# VARIANT ID, OBSERVABLE, DATA VALUE
data = [
    ("LSYF", "enrichment ratio", 0.698),
    ("ANLP", "enrichment ratio", "≤ 0.25"),
    ("ENRF", "enrichment ratio", "≤ 0.25"),
    ("FGMM", "enrichment ratio", 18.1),
    ("EGLC", "enrichment ratio", "≤ 0.25"),
    ("FDDD", "enrichment ratio", "≤ 0.25"),
    ("AMAT", "enrichment ratio", 3.36),
    ("NNRM", "enrichment ratio", "≤ 0.25"),
    ("QMRR", "enrichment ratio", "≤ 0.25"),
    ("TAME", "enrichment ratio", 15.7),
]

QUERY: Item KDFY has what recorded enrichment ratio?
RESULT: ≤ 0.25

QUERY: Could you do the same for FFGE , please?
RESULT: ≤ 0.25

QUERY: Could you do the same for TDKY , please?
RESULT: ≤ 0.25
